Data origin, for the record: paper PMC5540273

tested on: HUNK; details: concentration: 1 μM, replicates: in singlicate; n = 1;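 note: KINOMEscan kinase panel screen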
Some molecules, each annotated with its measured %Inh.
Respond with the bare value in %.

Examples from the recorded data:
Cl.Cl.NC(CNC(=O)c1cc(Br)c(-c2ccnc3[nH]ccc23)s1)c1ccccc1 (centres unmarked) [GSK1322949] ... 0
Cn1cc(-c2ccc3c(c2)CCN3C(=O)Cc2cc(F)cc(C(F)(F)F)c2)c2c(N)ncnc21 [GSK2635225] ... 9
COC(=O)Nc1nc2cc(Oc3ccc(NC(=O)Nc4cccc(SC)c4)cc3)ccc2[nH]1.Cl [GW697999] ... 28
O=C(O)C(F)(F)F.O=c1[nH]ccc2nc(N[C@@H]3CCNC3)nc(Nc3ccc4c(c3)S(=O)(=O)CC4)c12 [GSK2181306] ... 0
COc1cc(Nc2nccc(N3CCC(NS(=O)(=O)c4ccc(NC(C)=O)cc4)CC3)n2)cc(OC)c1OC [GSK1379825] ... 0

Input: Complete the entry with %Inh for COc1ccc(C2=C(Nc3cccc(O)c3)C(=O)NC2=O)cc1 [SB-390766]
Output: 0

Input: Complete the entry with %Inh for Fc1cc(Cl)ccc1Nc1ccnc2cc(-c3ccc(CN4CCSCC4)o3)ccc12 [GW560106]
Output: 71

Input: Complete the entry with %Inh for Nc1ncc(-c2cn[nH]c2)c2scc(-c3ccc4c(c3)CCN4C(=O)Cc3ccccc3)c12 [GSK2593067]
Output: 0

----------
test system: NEK1; settings: concentration: 1 μM, replicates: in singlicate; n = 1
Attribute measured: %Inh
Report field: quantity (unit follows the number).

Examples from the recorded data:
Cc1ccc(NC(=O)c2cccc(N3CCCCC3)c2)cc1-c1ccc(C(=O)NCC2CC2)cc1 [GSK1917008] ... 27%
CCn1c(-c2nonc2N)nc2c(-c3ccccc3)ncc(OCCCN)c21.O=C(O)C(F)(F)F.O=C(O)C(F)(F)F [GSK260205] ... 0%

Input: Complete the entry with %Inh for N#Cc1cnc2cc(-c3cnc(CNCCN4CCOCC4)s3)ccc2c1Nc1ccc(Oc2ccccc2)cc1 [GW664114]
Output: 0%

Input: Complete the entry with %Inh for Nc1ncc(-c2ccc3nccc(-c4ccncc4)c3c2)cc1S(=O)(=O)N1CCCCC1 [GSK1693850]
Output: 2%

Input: Complete the entry with %Inh for O=C(Nc1n[nH]c2nc(-c3cccc(O)c3)ccc12)C1CC1 [SB-711805]
Output: 4%

Input: Complete the entry with %Inh for O=C(Nc1c(F)cccc1F)c1cc(C(=O)c2ccccc2F)c[nH]1 [GSK1326180]
Output: 0%

Input: Complete the entry with %Inh for CN(C)CCNS(=O)(=O)c1ccc(-c2ccnc3[nH]ccc23)cc1 [GSK977620]
Output: 99.8%

Input: Complete the entry with %Inh for Cc1ccc(NC(=O)c2ccc(Cl)c(Cl)c2)cc1-c1ccc(C(=O)Nc2ccncc2)cc1 [GSK1398460]
Output: 16%

----------
Some compounds, each annotated with its measured %Inh.
tested on: CDKL1; conditions: concentration: 1 μM, replicates: in singlicate; n = 1
Respond with the bare value in %.

N#CC1(c2cccc(C(=O)Nc3cccc(Oc4ccc5nc(NC(=O)C6CC6)sc5n4)c3)c2)CC1 ... 14
CNc1nccc(-c2ccc3c(N)n[nH]c3c2)n1 ... 18
CC(C)(C)c1ccc(C(=O)Nc2cn3cc(-n4ccnc4)ccc3n2)cc1 ... 29
N#Cc1cnc2cc(-c3cnc(CNCCN4CCOCC4)s3)ccc2c1Nc1ccc(Oc2ccccc2)cc1 ... 0
Cc1cccc(Nc2nc(N[C@H]3CCCC[C@H]3N)ncc2C(N)=O)c1.Cl ... 9

Input: Complete the entry with %Inh for "O=C(Nc1n[nH]c2nc(-c3ccccc3O)ccc12)C1CC1"
Output: 42

Input: Complete the entry with %Inh for "Cc1ccccc1CC(=O)N1CCc2cc(-c3cn(C)c4ncnc(N)c34)ccc21"
Output: 0

Input: Complete the entry with %Inh for "O=C(Nc1n[nH]c2cc(-c3cccs3)ccc12)C1CC1"
Output: 50

----------
Some molecules, each annotated with its measured %Inh.
test system: TESK1; settings: concentration: 1 μM, replicates: in singlicate; n = 1
Respond with the bare value in %.

Examples from the recorded data:
Cc1ccc(-c2ccc3occ(-c4ccc(S(C)=O)cc4)c3c2)nn1 (centres unmarked) ... 0
Cc1ccc(NC(=O)c2cccc(N3CCCCC3)c2)cc1-c1ccc(C(=O)NCC2CC2)cc1 [GSK1917008] ... 0
CCNC(=O)/C=C/c1n[nH]c2cc(Sc3ccccc3C(=O)NC)ccc12 ... 10
COc1cc(Nc2nccc(N3CCC(NS(=O)(=O)c4ccc(NC(C)=O)cc4)CC3)n2)cc(OC)c1OC [GSK1379825] ... 71

Input: Find the measured %Inh of "CC(=O)Nc1cn2nc(Oc3cccc(NC(=O)c4cccc(C(F)(F)F)c4)c3)ccc2n1" with TESK1 as test system.
Output: 13

Input: Find the measured %Inh of Cc1ccc(O)cc1Nc1ccnc2cc(-c3ccc(CN4CCCCC4)o3)ccc12 [GW557777] with TESK1 as test system.
Output: 0

----------
tested on: CHEK1; settings: concentration: 1 μM, replicates: in singlicate; n = 1
Some molecules, each annotated with its measured %Inh.
Respond with the bare value in %.

Examples from the recorded data:
COc1cc(Nc2nccc(N3CCC(NC(=O)Nc4ccc5c(c4)OCO5)C3)n2)cc(OC)c1OC (centres unmarked) ... 0
CCNc1nccc(-c2c(-c3ccc(F)cc3)ncn2C2CCN(C)CC2)n1 ... 7
Cc1cc(-c2ccnc(Nc3cccc(C#N)c3)n2)cc(C)c1O ... 0
COC(=O)Nc1nc2cc(Oc3ccc(NC(=O)Nc4cccc(SC)c4)cc3)ccc2[nH]1.Cl ... 2

Input: Complete the entry with %Inh for "Cc1ccc(O)cc1Nc1ccnc2cc(-c3ccc(CN4CCCCC4)o3)ccc12"
Output: 13

Input: Complete the entry with %Inh for "Cc1ccc(Nc2ccnc(Nc3ccc(C)c(F)c3)n2)cc1O.Cl"
Output: 0

Input: Complete the entry with %Inh for "Fc1cc(Cl)ccc1Nc1ccnc2cc(-c3ccc(CN4CCOCC4)o3)ccc12"
Output: 12

Input: Complete the entry with %Inh for "Cc1ccc(O)cc1Nc1ccnc2ccc(C(C)(C)C)cc12"
Output: 9

----------
Some compounds, each annotated with its measured %Inh.
tested on: TAOK3; conditions: concentration: 1 μM, replicates: in singlicate; n = 1
Report field: quantity (unit follows the number).

Input: Complete the entry with %Inh for "Fc1cc(Cl)ccc1Nc1ccnc2cc(-c3ccc(CN4CCOCC4)o3)ccc12"
Output: 0%

Input: Complete the entry with %Inh for "COC(=O)Nc1nc2ccc(Oc3ccc(CC(=O)Nc4cc(C(F)(F)F)ccc4F)cc3)cc2[nH]1"
Output: 0%

Input: Complete the entry with %Inh for "CC(=O)Nc1cn2nc(Oc3cccc(NC(=O)c4cccc(C(F)(F)F)c4)c3)ccc2n1"
Output: 0%

Input: Complete the entry with %Inh for "Cc1ccc(NC(=O)c2ccnc(N3CCCCC3)c2)cc1-c1ccc(C(=O)NCC2CC2)cc1"
Output: 0%

Input: Complete the entry with %Inh for "COc1cccc(CC(=O)N2CCc3cc(-c4cn(C)c5ncnc(N)c45)ccc32)c1"
Output: 3%

Input: Complete the entry with %Inh for "CS(=O)(=O)c1cccc(CNc2nc(Nc3ccc4c(c3)CCC(=O)N4)ncc2C(F)(F)F)c1"
Output: 0%

----------
system: NEK6; conditions: concentration: 1 μM, replicates: in singlicate; n = 1
Some compounds, each annotated with its measured %Inh.
Respond with the bare value in %.

CN(c1ccc(NC(=O)N2CCN(CCCN3CCOCC3)CC2)cc1)c1ccnc(Nc2ccc(CS(C)(=O)=O)cc2)n1.Cl ... 14
CCNC(=O)/C=C/c1n[nH]c2cc(Sc3ccccc3C(=O)NC)ccc12 ... 38
CN1CCN(Cc2ccc(NC(=O)Nc3ccc(N(C)c4ccnc(Nc5ccc(CS(C)(=O)=O)cc5)n4)cc3)cc2)CC1.Cl ... 3
O=C(Nc1n[nH]c2nc(-c3ccccc3O)ccc12)C1CC1 ... 0
Cc1cc(-c2ccnc(Nc3cccc(C#N)c3)n2)cc(C)c1O ... 0
COC(=O)Nc1nc2cc(Oc3ccc(NC(=O)Nc4cccc(SC)c4)cc3)ccc2[nH]1.Cl ... 0
O=C1NC(=O)C(c2ccccc2Cl)=C1Nc1cccc(Cl)c1 ... 1
CCOc1nccc(-c2c(-c3ccc(F)cc3)ncn2C2CCNCC2)n1 ... 4

We now examine a further compound.
Input: Complete the entry with %Inh for Cc1ccc(-c2ccc3occ(-c4ccc(S(C)=O)cc4)c3c2)nn1 (stereo not drawn)
Output: 0

----------
tested on: PIK3CG; settings: concentration: 1 μM, replicates: in singlicate; n = 1
Attribute measured: %Inh
Report field: quantity (unit follows the number).

Examples from the recorded data:
N#CC1(c2cccc(C(=O)Nc3cccc(Oc4ccc5nc(NC(=O)C6CC6)sc5n4)c3)c2)CC1 ... 0%
COC(=O)Nc1nc2ccc(Oc3ccc(CC(=O)Nc4cc(C(F)(F)F)ccc4F)cc3)cc2[nH]1 ... 0%

We now examine a further compound.
Input: Complete the entry with %Inh for "N#Cc1cnc2cc(-c3cnc(CNCCN4CCOCC4)s3)ccc2c1Nc1ccc(Oc2ccccc2)cc1"
Output: 0%
